Attribute: pIC50
- system name: PI 4-kinase beta (Homo sapiens, UniProt Q9UBF8)
- Sequence (Q9UBF8 whole entry): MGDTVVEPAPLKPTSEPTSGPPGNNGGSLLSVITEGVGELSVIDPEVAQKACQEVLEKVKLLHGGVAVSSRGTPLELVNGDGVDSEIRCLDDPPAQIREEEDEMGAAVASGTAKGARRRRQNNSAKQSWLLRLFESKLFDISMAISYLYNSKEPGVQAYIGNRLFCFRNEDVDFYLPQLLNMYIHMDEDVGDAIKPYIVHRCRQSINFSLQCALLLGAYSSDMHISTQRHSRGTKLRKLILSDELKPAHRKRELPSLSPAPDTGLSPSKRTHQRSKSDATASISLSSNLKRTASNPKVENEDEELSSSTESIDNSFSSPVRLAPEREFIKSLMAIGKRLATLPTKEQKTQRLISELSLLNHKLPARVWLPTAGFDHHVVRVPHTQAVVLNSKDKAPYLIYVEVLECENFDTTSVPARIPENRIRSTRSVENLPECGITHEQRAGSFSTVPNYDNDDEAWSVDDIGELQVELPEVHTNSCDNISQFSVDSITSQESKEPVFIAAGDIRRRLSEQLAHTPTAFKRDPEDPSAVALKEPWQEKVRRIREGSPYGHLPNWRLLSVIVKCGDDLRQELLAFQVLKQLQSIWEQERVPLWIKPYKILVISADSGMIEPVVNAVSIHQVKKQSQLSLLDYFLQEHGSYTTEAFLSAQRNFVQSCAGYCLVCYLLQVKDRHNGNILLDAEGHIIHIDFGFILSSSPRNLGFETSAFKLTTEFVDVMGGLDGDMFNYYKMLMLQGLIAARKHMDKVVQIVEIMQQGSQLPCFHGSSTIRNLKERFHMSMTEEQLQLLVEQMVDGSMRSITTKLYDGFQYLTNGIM
- measurement description: Kinase Glo Luminescent Kinase Assay (Kglo), assay D
- Type: biochemical
- test context: read-out: Assay D PI4Kβ IC50
pIC50: −log10 of the molar value.
assay endpoint: pIC50

>  <molecule>
Cc1ccc(S(=O)(=O)NCCC(C)(C)O)cc1-c1cnc(N)c(-c2cccnc2)n1

>  <assay endpoint>
pIC50

>  <inequality operator>
=

>  <assay value>
5.10

$$$$
>  <molecule>
CCCn1cc(-c2nc(-c3cc(S(=O)(=O)NCCC(C)(C)O)ccc3C)cnc2N)cn1

>  <assay endpoint>
pIC50

>  <inequality operator>
=

>  <assay value>
5.39

$$$$
>  <molecule>
Cc1ccc(S(=O)(=O)NCC(N)=O)cc1-c1cnc(N)c(-n2cncn2)n1

>  <assay endpoint>
pIC50

>  <inequality operator>
=

>  <assay value>
5.05

$$$$
>  <molecule>
Cc1ccc(S(=O)(=O)NCC(C)(C)O)cc1-c1cnc(N)c(-c2cn(C)nn2)n1

>  <assay endpoint>
pIC50

>  <inequality operator>
=

>  <assay value>
5.05

$$$$
>  <molecule>
Cc1ncc(-c2nc(-c3cc(S(=O)(=O)NC4CCOCC4)ccc3C)cnc2N)s1

>  <assay endpoint>
pIC50

>  <inequality operator>
=

>  <assay value>
5.80

$$$$
>  <molecule>
Cc1ncc(-c2nc(-c3cc(S(=O)(=O)NC[C@H]4CCCO4)ccc3C)cnc2N)s1 (single isomer, unassigned) [Example 45.6a]

>  <assay endpoint>
pIC50

>  <inequality operator>
=

>  <assay value>
5.39

$$$$
>  <molecule>
Cc1ccc(S(=O)(=O)NC2CCC(CO)CC2)cc1-c1cnc(N)c(-n2cncn2)n1 (centres unmarked)

>  <assay endpoint>
pIC50

>  <inequality operator>
<

>  <assay value>
5.00

$$$$
>  <molecule>
Cc1cn(-c2nc(-c3cc(S(=O)(=O)NCCC(C)(C)O)ccc3C)cnc2N)cn1

>  <assay endpoint>
pIC50

>  <inequality operator>
=

>  <assay value>
5.11

$$$$
